# Assay Info: self-splicing fitness, log relative to wild type (ln ratio); higher = more splicing; Tetrahymena group I intron in knt gene, E. coli kanamycin selection, DiMSum; sequences stand for … in CUCUCU…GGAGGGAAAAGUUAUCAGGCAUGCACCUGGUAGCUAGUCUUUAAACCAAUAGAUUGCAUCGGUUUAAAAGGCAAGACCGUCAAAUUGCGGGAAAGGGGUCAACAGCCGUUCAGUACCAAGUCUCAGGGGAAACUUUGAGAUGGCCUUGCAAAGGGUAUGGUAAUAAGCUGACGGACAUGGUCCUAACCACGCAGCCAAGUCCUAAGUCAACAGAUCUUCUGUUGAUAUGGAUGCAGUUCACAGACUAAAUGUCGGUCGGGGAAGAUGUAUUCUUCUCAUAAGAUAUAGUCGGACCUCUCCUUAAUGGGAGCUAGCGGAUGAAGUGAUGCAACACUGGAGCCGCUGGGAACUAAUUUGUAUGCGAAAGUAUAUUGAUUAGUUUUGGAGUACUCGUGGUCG;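 note: selection with 25 µg/mL kanamycin versus none on LB agar overnight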
# Condition Details: 37 °C
Kindly supply the reported self-splicing fitness (ln) values for the records listed here.
// no unit string in output, number only

Query: Give me measured self-splicing fitness (ln), please, for this sequence: `CAAAAGCAAUAUUACGUUAG`
Result: -0.632

Query: Note self-splicing fitness (ln) for the sequence shown: `GAGCAGCAAUAUUACGACAG`
Result: -2.6

Query: Please indicate self-splicing fitness (ln) recorded for `GAUCAGCAAUAUUACGCAAA`
Result: -0.367

Query: Output measured self-splicing fitness (ln) for this item: `UGUCAGCAAUAUUACGUACA`
Result: -0.0735

Query: Provide one value: measured self-splicing fitness (ln) of `GGGGAGCAAUAUUACGUAUA`
Result: -2.35

Query: Answer with the recorded self-splicing fitness (ln) for the sequence listed here: `UCUUAGCAAUAUUACGAGUG`
Result: -0.162

Query: # return recorded self-splicing fitness (ln) for input `GAGUAGCAAUAUUACGCAUU`
Result: -2.07

Query: Return self-splicing fitness (ln) for the following sequence: `CAACAGCAAUAUUACGUGUC`
Result: -2.04

Query: Please give the documented self-splicing fitness (ln) of `GGGGAGCAAUAUUACGAAAU`
Result: -2.37

Query: Query self-splicing fitness (ln) for `GGGCAGCAAUAUUACGGCGU`
Result: -0.571

Query: Quick one: give measured self-splicing fitness (ln) for `ACUAAGCAAUAUUACGAGAG`
Result: -2.52

Query: Complete the entry with self-splicing fitness (ln) for `UCAGAGCAAUAUUACGGGAC`
Result: -1.6

Query: Could you please provide reported self-splicing fitness (ln) for `AGGAAGCAAUAUUACGAUGA` ? Thanks!
Result: -0.773

Query: Please report self-splicing fitness (ln) for the following sequence: `CGGUAGCAAUAUUACGAAAA`
Result: -2.77

Query: Tell us which self-splicing fitness (ln) value is on record for `CGUGAGCAAUAUUACGCCGU`
Result: -1.1

Query: Determine from records and report self-splicing fitness (ln) for `AUCGAGCAAUAUUACGGAAU`
Result: -1.79

Query: Look up and state reported self-splicing fitness (ln) for `AGGAAGCAAUAUUACGGCGA`
Result: -0.301

Query: Provide only the value of recorded self-splicing fitness (ln) for `GAGAAGCAAUAUUACGCAGA`
Result: -1.8

Query: Report measured self-splicing fitness (ln); entry is `GACAAGCAAUAUUACGUGGA`
Result: -1.42

Query: Give me measured self-splicing fitness (ln), please, for this sequence: `AACCAGCAAUAUUACGCUGU`
Result: -1.4

Query: Answer with the recorded self-splicing fitness (ln) for the sequence listed here: `UGCCAGCAAUAUUACGGUGA`
Result: 0.0352

Query: Could you please provide reported self-splicing fitness (ln) for `GAUCAGCAAUAUUACGGCUA` ? Thanks!
Result: 0.0701

Query: Please give measured self-splicing fitness (ln) of the following entry: `UUAGAGCAAUAUUACGGUUA`
Result: -1.17

Query: For the sequence `ACAGAGCAAUAUUACGCGGA` , give its measured self-splicing fitness (ln) value.
Result: -2.62

Query: Given the sequence `GAGGAGCAAUAUUACGCCUC` , write its reported self-splicing fitness (ln).
Result: -2.29

Query: Give recorded self-splicing fitness (ln). `AGGGAGCAAUAUUACGCUCA`
Result: -1.14

Query: Supply self-splicing fitness (ln) value. Item: `UGUCAGCAAUAUUACGCGGG`
Result: -1.73

Query: Note self-splicing fitness (ln) for the sequence shown: `UAACAGCAAUAUUACGAAGG`
Result: -1.78

Query: // Input: `GUAAAGCAAUAUUACGAGUG` . Output its self-splicing fitness (ln) only.
Result: -0.403

Query: State its self-splicing fitness (ln): `AAUAAGCAAUAUUACGCGAG`
Result: -0.557
